What LD50 was measured for each of the following?
test: in vivo; type: in vivo; settings: mouse, in vivo, ip; i.p. in mice; N = 5, K = 4; read-out: LD50 and fiducial limits
# output: bare number, implied unit mg/kg

Tell me its LD50 given COC(=O)CCC(=O)OC(CC(=O)O)C[N+](C)(C)C (stereo not drawn) as the entry.
985

Tell me its LD50 given CCOCC(=O)OC(CC(=O)O)C[N+](C)(C)C (stereo not drawn) [ethoxy ACAR, ethoxy acetyl carnitine chloride] as the entry.
2120

Tell me its LD50 given C[N+](C)(C)CC(CC(=O)O)OC(=O)CC1C=CCC1 (stereo not drawn) as the entry.
1200

Tell me its LD50 given CC(C)C(O)C(=O)OC(CC(=O)O)C[N+](C)(C)C (stereo not drawn) [2-hydroxy isovaleryl CAR] as the entry.
1580

Tell me its LD50 given CC(C)(C)CC(=O)OC(CC(=O)O)C[N+](C)(C)C (stereo not drawn) as the entry.
1120

Tell me its LD50 given CC(C)(O)C(=O)OC(CC(=O)O)C[N+](C)(C)C (stereo not drawn) [2-hydroxy isobutyryl CAR] as the entry.
1470

Tell me its LD50 given C[N+](C)(C)CC(CC(=O)O)OC(=O)CC1CCCCC1 (stereo not drawn) [cyclohexyl ACAR, cyclohexyl acetyl carnitine chloride] as the entry.
850

Tell me its LD50 given C=CC(=O)OC(CC(=O)O)C[N+](C)(C)C (stereo not drawn) as the entry.
1380

Tell me its LD50 given COCC(=O)OC(CC(=O)O)C[N+](C)(C)C (stereo not drawn) [methoxy ACAR, methoxy acetyl carnitine chloride] as the entry.
1980
